# target-entity: T1, recombinant human TIGIT (human, UniProt Q495A1 22-141, limits assumed)
# T1 construct: recombinant human TIGIT used in Carterra SPR; also called hTIGIT
# T1 sequence (looked up): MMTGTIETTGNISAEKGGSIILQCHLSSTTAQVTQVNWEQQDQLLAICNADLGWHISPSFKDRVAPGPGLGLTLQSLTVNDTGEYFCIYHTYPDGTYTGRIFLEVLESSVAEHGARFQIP
# test-summary: SPR Carterra, average
I'd be grateful if you could share measured pKd for these entries.
One number for each entry, as −log10 of the molar value.

TIGIT-SC94 (Fc fusion, VHH-Fc fusion in assay) VHH: EVQLVESGGGLVQPGGSLRLSCAASGSSFSAYAMGWFRQAPGKEREFVSLINWSSGKTIYADSVKGRFTISADNSKNTAYLQMNSLKPEDTAVYYCARVRIFNHVHRPSYYFDYWGQGTLVTVSS = 6.26

Complete the entry with pKd for TIGIT-SC166 (Fc fusion, VHH-Fc fusion in assay) VHH: EVQLVESGGGLVQPGGSLRLSCAASGFTFDRSWMGWFRQAPGKEREWVASVLRGGYTWYADSVKGRFTISADNSKNTAYLQMNSLKPEDTAVYYCAREGSGYASDYWGQGTLVTVSS
7.60
